MEASURED TARGET: CD28 (human) (UniProt P10747)
ASSAY OVERVIEW: flow cytometry, Jurkat/IL2 reporter cells (endogenous CD28); MFI ratio to WT CD80 ECD-Fc (R&D)
MEASUREMENT KIND: Fold change to WT (fold)

INSERT INTO measurements (binder, measurement_kind, readout_units, number) VALUES
  ('variant CD80 IgV-Fc Q27H/Q33L/E35D/M47V/N55D/L85Q/K89N (Fc fusion) VIHVTKEVKEVATLSCGHNVSVEELAHTRIYWLKDKKMVLTMMSGDVNIWPEYKDRTIFDITNNLSIVILALRPSDEGTYECVVQKYENDAFKREHLAEVTLSVKAD', 'Fold change to WT', 'fold', 0.04),
  ('variant CD80 IgV-Fc A26E/Q33R/E35D/M47L/L85Q/K86E (Fc fusion) VIHVTKEVKEVATLSCGHNVSVEELEQTRIYWRKDKKMVLTMMSGDLNIWPEYKNRTIFDITNNLSIVILALRPSDEGTYECVVQEYEKDAFKREHLAEVTLSVKAD', 'Fold change to WT', 'fold', 0.04),
  ('variant CD80 IgV-Fc H18Y/E35D/M47L (Fc fusion) VIHVTKEVKEVATLSCGYNVSVEELAQTRIYWQKDKKMVLTMMSGDLNIWPEYKNRTIFDITNNLSIVILALRPSDEGTYECVVLKYEKDAFKREHLAEVTLSVKAD', 'Fold change to WT', 'fold', 0.66),
  ('variant CD80 IgV-Fc Q33L/E35D/M47L/A71G/F92S (Fc fusion) VIHVTKEVKEVATLSCGHNVSVEELAQTRIYWLKDKKMVLTMMSGDLNIWPEYKNRTIFDITNNLSIVILGLRPSDEGTYECVVLKYEKDASKREHLAEVTLSVKAD', 'Fold change to WT', 'fold', 0.05),
  ('variant CD80 IgV-Fc Q33L/E35D/M47L/V68M/L85Q/E88D (Fc fusion) VIHVTKEVKEVATLSCGHNVSVEELAQTRIYWLKDKKMVLTMMSGDLNIWPEYKNRTIFDITNNLSIMILALRPSDEGTYECVVQKYDKDAFKREHLAEVTLSVKAD', 'Fold change to WT', 'fold', 0.03),
  ('variant CD80 IgV-Fc H18Y/A26E/Q33L/E35D/M47L/L85Q (Fc fusion) VIHVTKEVKEVATLSCGYNVSVEELEQTRIYWLKDKKMVLTMMSGDLNIWPEYKNRTIFDITNNLSIVILALRPSDEGTYECVVQKYEKDAFKREHLAEVTLSVKAD', 'Fold change to WT', 'fold', 0.04),
  ('variant CD80 IgV-Fc E35D/M47I/E77A/L85Q/R94W (Fc fusion) VIHVTKEVKEVATLSCGHNVSVEELAQTRIYWQKDKKMVLTMMSGDINIWPEYKNRTIFDITNNLSIVILALRPSDAGTYECVVQKYEKDAFKWEHLAEVTLSVKAD', 'Fold change to WT', 'fold', 0.04),
  ('variant CD80 IgV-Fc E7D/E35D/M47I/L97Q (Fc fusion) VIHVTKDVKEVATLSCGHNVSVEELAQTRIYWQKDKKMVLTMMSGDINIWPEYKNRTIFDITNNLSIVILALRPSDEGTYECVVLKYEKDAFKREHQAEVTLSVKAD', 'Fold change to WT', 'fold', 0.04);

Provenance of the data: patent US20220177587A1
